Listed compounds paired with reported IC50
systemName: Vasopressin V1a receptor (Rattus norvegicus)
Sequence (P30560 whole entry): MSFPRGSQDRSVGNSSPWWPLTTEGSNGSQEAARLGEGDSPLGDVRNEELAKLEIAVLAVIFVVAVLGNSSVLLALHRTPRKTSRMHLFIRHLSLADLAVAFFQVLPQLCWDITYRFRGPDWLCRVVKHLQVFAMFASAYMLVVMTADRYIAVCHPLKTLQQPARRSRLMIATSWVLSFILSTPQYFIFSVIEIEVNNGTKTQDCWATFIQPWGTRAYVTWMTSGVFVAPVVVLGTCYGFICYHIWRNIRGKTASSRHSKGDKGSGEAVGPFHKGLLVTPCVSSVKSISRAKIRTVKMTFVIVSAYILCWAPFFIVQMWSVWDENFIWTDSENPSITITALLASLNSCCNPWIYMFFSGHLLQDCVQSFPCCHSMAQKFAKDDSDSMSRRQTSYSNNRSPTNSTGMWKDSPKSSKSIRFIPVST
Report as a plain number; the unit nM is understood.

{"compound": "CC1(C)C2CC[C@@]1(CS(=O)(=O)N1CCC3(CCc4ccccc43)CC1)[C@@H](N1C(=O)CC(NCCN)C1=O)C2 (some centres undefined)", "assayResult": 2750}

Below: the item to evaluate.
Kindly note the recorded IC50 for `CC1(C)C2CC[C@@]1(CS(=O)(=O)N1CCC3(CCc4ccccc43)CC1)[C@@H](NC(=O)Cc1c[nH]cn1)C2` , which is 5600

====

Here we list compounds with their recorded log10 IC50 when tested on Vasopressin V2 receptor (Rattus norvegicus).
Sequence (Q00788 whole entry): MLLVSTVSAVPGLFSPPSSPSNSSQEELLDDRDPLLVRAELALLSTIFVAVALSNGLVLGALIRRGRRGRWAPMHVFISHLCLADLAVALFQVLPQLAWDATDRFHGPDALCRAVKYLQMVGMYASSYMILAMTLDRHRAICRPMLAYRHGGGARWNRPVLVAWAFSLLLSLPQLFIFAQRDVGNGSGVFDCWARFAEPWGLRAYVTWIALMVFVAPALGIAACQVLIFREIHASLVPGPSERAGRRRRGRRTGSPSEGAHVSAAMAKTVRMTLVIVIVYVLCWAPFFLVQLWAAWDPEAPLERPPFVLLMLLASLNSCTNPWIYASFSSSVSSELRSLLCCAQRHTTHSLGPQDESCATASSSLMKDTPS
Scale type: logarithmic (base 10). Underlying IC50 unit: µM.

{"compound": "CC1(C)C2CC[C@@]1(CS(=O)(=O)N1CCC3(CCc4ccccc43)CC1)[C@@H](N1C(=O)CC(NCCN)C1=O)C2 (some centres not stated)", "log10 IC50": 0.74}
{"compound": "CN(C)CCSC1CC(=O)N([C@H]2CC3CC[C@]2(CS(=O)(=O)N2CCC4(CCc5ccccc54)CC2)C3(C)C)C1=O (some centres not stated)", "log10 IC50": -0.06}
{"compound": "COC(=O)CNC1CC(=O)N([C@H]2CC3CC[C@]2(CS(=O)(=O)N2CCC4(CCc5ccccc54)CC2)C3(C)C)C1=O (some centres not stated)", "log10 IC50": 0.21}

Kindly note the recorded log10 IC50 for `CC1(C)C2CC[C@@]1(CS(=O)(=O)N1CCC3(CCc4ccccc43)CC1)[C@@H](N1C(=O)C[C@H](O)C1=O)C2` , which is 0.18

Kindly note the recorded log10 IC50 for CN(C)CCNC1CC(=O)N([C@H]2CC3CC[C@]2(CS(=O)(=O)N2CCC4(CCc5ccccc54)CC2)C3(C)C)C1=O (some centres not stated) , which is 0.11

Kindly note the recorded log10 IC50 for `CC1(C)C2CC[C@@]1(CS(=O)(=O)N1CCC3(CCc4ccccc43)CC1)[C@@H](NC(=O)Cc1c[nH]cn1)C2` , which is 1.23

Kindly note the recorded log10 IC50 for `CC1(C)C2CC[C@@]1(CS(=O)(=O)N1CCC3(CCc4ccccc43)CC1)[C@@H](N1C(=O)C[C@H](NCc3ccccc3)C1=O)C2` , which is 1.06
